IC50 values by entry
target under test: CDK2/cyclin A (Homo sapiens, UniProt P24941)
Construct: made in house
protocol text: Protein kinase assay
Type: biochemical
conditions used: 15 μmol/L ATP; read-out: IC50 CDK2/cyclin A

Consider the following illustrative entries.
NC1=NC(=O)/C(=C2\CCNC(=O)c3[nH]cc(Br)c32)N1 ... 0.068 µM
CN1C(=N)N(C)/C(=C\c2c[nH]c3ccccc23)C1=O ... > 10 µM

Q: So what's the measured IC50 for this one? `CN1C(=O)N=C(Nc2nc(Cc3ccc4c(c3)OCO4)cn2C)C1=O`
Result: > 10 µM

----------
target under test: CDK1/cyclin B
protocol text: Protein kinase assay
conditions used: 15 μmol/L ATP
pIC50: −log10 of the molar value.
endpoint label: pIC50

Q: So what's the measured pIC50 for this one? NC1=NC(=O)/C(=C2\CCNC(=O)c3[nH]cc(Br)c32)N1 [Spongiacidin B]
Result: 7.51

Q: So what's the measured pIC50 for this one? NC1=NC(=Cc2ccccc2N2CCOCC2)C(=O)N1 [PAC7]
Result: < 5.00

These data points were gathered from paper PMC5666424.
